protocol.notes: Permeability test (MDR1-MDCKII monolayer, bidirectional transport)
Format: in vitro ADME
details: dog, MDCK-MDR1, pH 7.4, pH 7.40, 2.5 hours, A to B, read-out: Apparent permeability coefficient (Papp (AB), 10^-6 cm/s)
So I've got a bunch of compounds here, and I need their Papp A→B at 2.5 h, 2 µM values.
Give me the value, and tack the unit on after it.

compound="CCC(=O)NC1CCCc2c(-c3cc4c(s3)N(C)C(=O)CC4)cncc21 (single isomer, unassigned) [Compound 017]" readout_label="Papp A→B at 2.5 h, 2 µM" observed="23.2 ×10⁻⁶ cm/s"
compound="CCC(=O)NC1CCCc2c(-c3cc(F)c4c(ccc(=O)n4C)c3)cncc21 (single isomer, unassigned) [Compound 018]" readout_label="Papp A→B at 2.5 h, 2 µM" observed="24.6 ×10⁻⁶ cm/s"

Would you kindly look at the next entry?
Look up Papp A→B at 2.5 h, 2 µM for this compound: Cc1noc(C)c1C(=O)NC1CCCc2c(-c3cc4ccc(=O)n(C)c4cc3F)cncc21 (single isomer, unassigned) [Compound 020]
14 ×10⁻⁶ cm/s

These measurements were taken from patent EP4711361A1.
